# procedure.details: basal CRE-LacZ reporter activity in PC12 – cell-based, unstimulated, primary screen (AID 1145)
# settings: no forskolin, luminescence, 4.5 h, higher = more signal, called active from +8 up or from −8 down
Rule: z-score under -0.1 gives label 0, otherwise label 1.

Data request: Hi team, for CC(c1ccccc1)C(O)C1C=CC2C(=O)N(Cc3ccccc3)C(=O)C2N1n1cnnc1 (stereo not drawn) , is the recorded z-score at or above -0.1?
Data returned: label 0

Data request: Hi team, for COCCOC(=O)N1C(=O)[C@@]2(c3ccccc31)[C@H](c1ccc(O)cc1)N1[C@H](c3ccccc3)[C@H](c3ccccc3)OC(=O)[C@H]1[C@@H]2C(N)=O , is the recorded z-score at or above -0.1?
Data returned: label 1

Data request: Hi team, for O=C1C2C=CC(C(O)c3ccccn3)N(Nc3ccccc3F)C2C(=O)N1c1ccccc1 (stereo not drawn) , is the recorded z-score at or above -0.1?
Data returned: label 0

====

# Test system: Sam68 (KHDRBS1)
# procedure.details: compounds binding KHDRBS1 protein – biochemical, small-molecule microarray, 635 nm fluorescence, primary screen (AID 1125);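 note: score merges 667 nm channel intensity with signal to noise over triplicate slides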
# settings: higher = more signal
metric.name: composite z-score
One number for each entry.

Record excerpt, results attached:
Data request: Which value of composite z-score has been reported for Cc1ccc(S[C@]2(C(=O)NCCCN(C)C)CC(=O)N(Cc3ccccc3)[C@@H]2c2ccc(CO)cc2)cc1 in the records?
Data returned: -0.145

Data request: Which value of composite z-score has been reported for COCCOC(=O)N1C(=O)[C@@]2(c3ccccc31)[C@H](c1ccc(O)cc1)N1[C@H](c3ccccc3)[C@H](c3ccccc3)OC(=O)[C@H]1[C@@H]2C(N)=O in the records?
Data returned: -0.764

Data request: Which value of composite z-score has been reported for C=CCN1C(=O)[C@]2(Cc3ccccc31)N=C(c1ccc(OCCCO)cc1)O[C@@H]2c1ccccc1 in the records?
Data returned: 0.965

Batch request: composite z-score per item, same order as input.
1. CN1C(=O)C2C(C1=O)C1C=C(c3ccc(CO)cc3)C2C(C2CC2)N1Cc1sc2ccccc2c1Cl (stereo not drawn)
2. CC1(C)C(=O)C(c2ccccc2)=C2CN3C(=O)N(CCc4ccccc4)C(=O)C3(Cc3ccccc3)C=C21 (stereo not drawn)
3. COC(=O)[C@@]1(Cc2ccc(F)cc2)[C@H]2c3cc(C(=O)N(C)C)n(Cc4ccccn4)c3C[C@H]2CN1C(=O)c1ccccc1

Data returned:
1: 1.3; 2: 0.516; 3: 1.19

Batch request: composite z-score per item, same order as input.
1. COC(=O)[C@@]1(Cc2ccc(F)cc2)[C@H]2c3cc(C(=O)N4CCCC4)n(CCc4ccc(OC)c(Br)c4)c3C[C@H]2CN1C(=O)c1ccccc1
2. CCCC[C@H]1OB(O)C[C@H]2C1=C(C)Cn1c(=O)n(-c3ccccc3)c(=O)n12

Data returned:
1. 1.33
2. 0.401

====

# measured.on: Neurogenic locus notch homolog protein 3 (Homo sapiens) (UniProt Q9UM47)
# Sequence (Q9UM47 whole entry, looked up): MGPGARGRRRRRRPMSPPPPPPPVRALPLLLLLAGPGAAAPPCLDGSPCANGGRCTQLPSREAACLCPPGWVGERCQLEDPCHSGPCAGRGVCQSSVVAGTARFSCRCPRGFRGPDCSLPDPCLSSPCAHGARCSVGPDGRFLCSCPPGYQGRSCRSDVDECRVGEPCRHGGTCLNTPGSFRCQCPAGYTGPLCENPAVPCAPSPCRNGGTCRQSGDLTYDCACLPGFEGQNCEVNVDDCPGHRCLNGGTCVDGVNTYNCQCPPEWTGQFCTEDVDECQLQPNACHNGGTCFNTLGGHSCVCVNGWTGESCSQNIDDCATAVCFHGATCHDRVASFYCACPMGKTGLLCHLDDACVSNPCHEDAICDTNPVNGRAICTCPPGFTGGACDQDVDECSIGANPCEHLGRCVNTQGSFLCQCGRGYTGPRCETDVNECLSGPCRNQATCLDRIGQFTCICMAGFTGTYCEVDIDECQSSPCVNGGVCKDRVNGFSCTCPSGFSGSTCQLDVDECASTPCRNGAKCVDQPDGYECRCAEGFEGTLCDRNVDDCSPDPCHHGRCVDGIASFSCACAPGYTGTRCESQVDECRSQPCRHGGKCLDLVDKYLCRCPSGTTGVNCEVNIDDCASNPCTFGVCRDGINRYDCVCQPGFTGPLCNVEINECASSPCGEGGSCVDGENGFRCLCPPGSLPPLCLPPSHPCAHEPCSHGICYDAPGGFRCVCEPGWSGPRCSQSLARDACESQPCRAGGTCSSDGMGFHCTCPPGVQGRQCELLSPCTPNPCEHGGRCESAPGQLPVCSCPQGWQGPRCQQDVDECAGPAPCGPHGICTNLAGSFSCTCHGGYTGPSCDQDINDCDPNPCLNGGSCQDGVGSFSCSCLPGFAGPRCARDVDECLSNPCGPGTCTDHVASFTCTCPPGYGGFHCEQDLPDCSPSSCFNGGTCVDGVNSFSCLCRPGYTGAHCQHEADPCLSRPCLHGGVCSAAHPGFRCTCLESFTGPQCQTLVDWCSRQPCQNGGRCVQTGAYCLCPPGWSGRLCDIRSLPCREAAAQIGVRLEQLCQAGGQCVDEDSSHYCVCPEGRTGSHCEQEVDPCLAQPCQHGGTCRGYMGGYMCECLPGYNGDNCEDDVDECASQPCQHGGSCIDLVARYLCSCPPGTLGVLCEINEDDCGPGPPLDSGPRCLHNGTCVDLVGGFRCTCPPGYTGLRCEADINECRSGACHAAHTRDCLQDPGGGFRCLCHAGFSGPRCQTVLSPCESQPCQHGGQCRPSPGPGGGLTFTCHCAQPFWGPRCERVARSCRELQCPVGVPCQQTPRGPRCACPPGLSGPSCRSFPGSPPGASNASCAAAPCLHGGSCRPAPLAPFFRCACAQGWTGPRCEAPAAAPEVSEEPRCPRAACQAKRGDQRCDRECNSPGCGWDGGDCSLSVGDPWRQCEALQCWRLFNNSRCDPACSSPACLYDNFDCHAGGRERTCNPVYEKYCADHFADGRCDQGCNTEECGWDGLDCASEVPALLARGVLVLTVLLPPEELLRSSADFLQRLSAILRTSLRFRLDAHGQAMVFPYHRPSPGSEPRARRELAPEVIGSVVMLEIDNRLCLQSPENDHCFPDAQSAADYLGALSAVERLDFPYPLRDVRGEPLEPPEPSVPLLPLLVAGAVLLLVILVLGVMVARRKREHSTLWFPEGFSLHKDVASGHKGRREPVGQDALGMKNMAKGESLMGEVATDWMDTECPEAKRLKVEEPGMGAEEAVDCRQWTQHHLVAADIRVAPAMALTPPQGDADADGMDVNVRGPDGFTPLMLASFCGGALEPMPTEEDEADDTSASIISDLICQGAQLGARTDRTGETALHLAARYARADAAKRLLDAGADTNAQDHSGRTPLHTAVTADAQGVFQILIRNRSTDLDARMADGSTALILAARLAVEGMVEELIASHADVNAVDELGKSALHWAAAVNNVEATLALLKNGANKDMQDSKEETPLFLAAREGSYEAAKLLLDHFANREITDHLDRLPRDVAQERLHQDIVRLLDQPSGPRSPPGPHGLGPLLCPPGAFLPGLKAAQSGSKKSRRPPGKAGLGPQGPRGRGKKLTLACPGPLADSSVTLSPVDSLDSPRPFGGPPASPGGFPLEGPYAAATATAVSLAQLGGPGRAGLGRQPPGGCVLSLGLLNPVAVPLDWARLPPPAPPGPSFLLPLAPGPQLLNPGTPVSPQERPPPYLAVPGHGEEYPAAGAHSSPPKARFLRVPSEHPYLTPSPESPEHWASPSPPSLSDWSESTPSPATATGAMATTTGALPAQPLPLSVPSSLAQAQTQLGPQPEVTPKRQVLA
# procedure.details: small molecules binding NOTCH3 protein – biochemical, 635/667 nm fluorescence, primary screen (AID 1096)
# settings: small-molecule microarray, 635 nm fluorescence, higher = more signal
metric.name: composite z-score
Answers are plain numbers.

Record excerpt, results attached:
Data request: Which value of composite z-score has been reported for O=C1C[C@@](C(=O)O)(c2ccc([N+](=O)[O-])cc2)[C@@H](c2ccc(CO)cc2I)N1C1CCCCC1 in the records?
Data returned: 1.06

Data request: Which value of composite z-score has been reported for CCCNC(=O)[C@@]1(c2ccc([N+](=O)[O-])cc2)CC(=O)N(CC23CC4CC(CC(C4)C2)C3)[C@@H]1c1ccc(CO)cc1I in the records?
Data returned: 0.243

Data request: Which value of composite z-score has been reported for O=S(=O)(NCCCO)c1ccc(Br)cc1 in the records?
Data returned: -0.271

Data request: Which value of composite z-score has been reported for CN(C)CCCC[C@@H]1NC(=O)[C@H]2C[C@@H](C(=O)NCCCCCNC(=O)CS)[C@@H](c3ccc(O)cc3)N2C1=O in the records?
Data returned: -0.0464

Batch request: composite z-score per item, same order as input.
1. Cc1ccc([C@H]2C(C(=O)O)=C[C@@H](C(C)C)N2S(=O)(=O)c2ccc(C)cc2)cc1
2. CN1C(=O)C2C=CC(C(O)C=Cc3ccc([N+](=O)[O-])cc3)N(N3CCCCC3)C2C1=O (stereo unspecified)

Data returned:
[0.412, 1.06]

Batch request: composite z-score per item, same order as input.
1. C=CCNC(=O)[C@@H]1[C@H]2C(=O)O[C@H](c3ccccc3)[C@H](c3ccccc3)N2[C@H](c2ccccc2OCCO)[C@@]12C(=O)N(C(=O)OCCOC)c1ccc(C#CCC(C(=O)OC)C(=O)OC)cc12
2. C=CC[C@]1(C(=O)O)N=C(c2ccc(OCCCO)cc2)O[C@H]1c1ccccc1CN=[N+]=[N-]
3. COc1ccc([Si](C)(C)[C@H]2[C@H](CCO)O[C@@]3(C(=O)N(Cc4ccccc4)c4ccc(N5C(=O)COc6ccccc65)cc43)[C@@H]2C)cc1
4. C=CCN1Cc2ccccc2C[C@@]2(COC(c3ccc(OCCCO)cc3)=N2)C1=O
5. O=[N+]([O-])c1ccc(C[n+]2ccc(CCCO)cc2)o1
6. C=C(CCCC)/C(=C/C[C@@H](OC(=O)c1ccncc1)c1ccc(CO)o1)c1cc(C(=O)OC)ccc1OC
7. Cc1c(NC(=O)/C(C#N)=C/C=C/c2ccccc2)c(=O)n(-c2ccccc2)n1C

Data returned:
1. 1.07
2. -0.522
3. 0.246
4. 0.454
5. 1.07
6. 1.07
7. 0.478

Batch request: composite z-score per item, same order as input.
1. OCCCc1cc[n+](Cc2cccc(OC(F)(F)F)c2)cc1
2. O=C(CS)NCCCCCCNC(=O)[C@H]1C[C@H]2C(=O)N3CCC[C@H]3C(=O)N2[C@H]1c1ccc(O)cc1
3. COC(=O)[C@@]1(Cc2ccc(OC)cc2)[C@H]2c3cc(C(=O)N(C)C)n(CCSCCO)c3C[C@H]2CN1C(=O)c1ccccc1

Data returned:
[1.04, 0.905, 1.13]

====

# measured.on: NADPH oxidase 2 (Homo sapiens)
# procedure.details: compounds shifting NOX2 Amplex Red fluorescence – cell-based, HEK293-NOX2, PMA-stimulated, NOX inhibitor project, primary screen (AID 1159); note: test concentration not given here
# settings: 45 min, higher = more signal, called active from +8 up or from −8 down
Class (required): determined from z-score; valid ranges are class 0: < -0.02; class 1: ≥ -0.02 and < 0.8; class 2: ≥ 0.8

Data request: Exam item: assign COC(=O)[C@@]1(Cc2ccc(F)cc2)[C@H]2c3cc(C(=O)N4CCCC4)n(CCc4ccc(OC)c(Br)c4)c3C[C@H]2CN1C(=O)c1ccccc1 to the correct category.
Data returned: class 1

Data request: Exam item: assign C=CCC(OC(C)=O)[C@@H]1[C@@H](N(Cc2ccc(-c3cccc(C(F)(F)F)c3)o2)C(=O)c2ccc(C)cc2)c2cc(OCCCO)ccc2N1C(=O)c1ccc2ccccc2n1 (stereo partly drawn) to the correct category.
Data returned: class 0

Data request: Exam item: assign COc1ccc(C(O)C2C=CC3C(=O)N(c4ccccc4)C(=O)C3N2Nc2ccccc2)c2ccccc12 (stereo not drawn) to the correct category.
Data returned: class 0

Data request: Exam item: assign COC(=O)[C@@]1(Cc2ccc(F)cc2)[C@H]2c3cc(C(=O)N(C)C)n(CCCNc4ccc(C(F)(F)F)cc4Cl)c3C[C@H]2CN1C(=O)c1ccccc1 to the correct category.
Data returned: class 2

Data request: Exam item: assign COCCOC(=O)N1C(=O)[C@@]2(c3cc(C#CCC(C(=O)OC)C(=O)OC)ccc31)[C@H](c1ccc(OCCO)cc1)N1[C@H](c3ccccc3)[C@H](c3ccccc3)OC(=O)[C@H]1[C@@H]2C(=O)NC[C@H](O)c1ccccc1 to the correct category.
Data returned: class 2

More entries:
Data request: Exam item: assign C=C(CCCC)C(=O)CC[C@H](OC(C)=O)c1ccc(CO)o1 to the correct category.
Data returned: class 1

Data request: Exam item: assign NC(=O)NCC#Cc1ccc2c(c1)[C@]1(C(=O)N2)[C@H](c2ccccc2OCCO)N2[C@H](c3ccccc3)[C@H](c3ccccc3)OC(=O)[C@H]2[C@@H]1C(=O)N1CCCCCCC1 to the correct category.
Data returned: class 2

Data request: Exam item: assign CCCCN1CC=CC23O[C@@H]4/C=C\CCCOC(=O)C4[C@H]2C(=O)N(C(C)CO)[C@@H]3C1=O (stereo partly drawn) to the correct category.
Data returned: class 2

Data request: Exam item: assign NC(=O)NCC#Cc1ccc2c(c1)[C@]1(C(=O)N2)[C@H](c2ccc(O)cc2)N2[C@H](c3ccccc3)[C@H](c3ccccc3)OC(=O)[C@H]2[C@@H]1C(=O)N1CCN(c2ncccn2)CC1 to the correct category.
Data returned: class 2

Data request: Exam item: assign C=C(C(=O)CC[C@@H](OC(C)=O)c1ccc(OCCO)cc1)C(C)C to the correct category.
Data returned: class 0
